target: Protein cereblon/Peptidyl-prolyl cis-trans isomerase FKBP1A (Homo sapiens, UniProt P62942+Q96SW2); assay: Proteolysis targeting chimera activity in human MV4-11 cells assessed as induction of cereblon-mediated delivery of FKBP12 for protein degradation by proteasome incubated for 18 hrs by immuno blot analysis
Sequence (P62942 whole entry): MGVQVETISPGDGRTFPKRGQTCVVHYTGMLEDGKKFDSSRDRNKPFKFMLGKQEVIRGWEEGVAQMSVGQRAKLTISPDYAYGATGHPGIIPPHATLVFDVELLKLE
Sequence (Q96SW2 whole entry): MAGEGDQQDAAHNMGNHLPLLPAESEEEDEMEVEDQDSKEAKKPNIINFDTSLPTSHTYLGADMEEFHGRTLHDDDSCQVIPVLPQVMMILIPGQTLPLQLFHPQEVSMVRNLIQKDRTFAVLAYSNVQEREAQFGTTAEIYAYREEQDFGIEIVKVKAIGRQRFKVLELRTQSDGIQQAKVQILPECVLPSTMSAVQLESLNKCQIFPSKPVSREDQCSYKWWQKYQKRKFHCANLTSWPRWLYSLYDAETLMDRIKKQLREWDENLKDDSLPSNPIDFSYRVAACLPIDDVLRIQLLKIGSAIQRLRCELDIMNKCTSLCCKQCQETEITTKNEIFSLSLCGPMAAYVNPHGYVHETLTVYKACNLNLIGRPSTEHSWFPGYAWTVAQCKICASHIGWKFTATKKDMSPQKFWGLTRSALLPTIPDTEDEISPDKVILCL
Quantity name: pIC50
pIC50 (log units): -log10 of the concentration in mol/L.

INPUT: Item CCC(C)(C)C(=O)C(=O)N1CCCC[C@H]1C(=O)O[C@H](CCc1ccc(OC)c(OC)c1)c1cccc(NC(=O)CCC(=O)NCCNC(=O)COc2cccc3c2C(=O)N(C2CCC(=O)NC2=O)C3=O)c1 (stereo partly specified) has what recorded pIC50?
OUTPUT: 8.00

====

molecular target: Protein cereblon/Bromodomain-containing protein 4 (Homo sapiens, UniProt O60885+Q96SW2); assay: Proteolysis targeting chimera activity in human BL cells assessed as induction of cereblon-mediated delivery of BRD4 for protein degradation by proteasome by immuno blot analysis; assay type: cell-based
Sequence (Q96SW2 whole entry, looked up, other chains not shown): as the sequence (Q96SW2 whole entry) above
pIC50: −log10 of the molar value.
Quantity name: pIC50

INPUT: Lab note: need pIC50 for Cc1sc2c(c1C)C(c1ccc(Cl)cc1)=C[C@@H](CC(=O)Nc1ccc(OCCOCCOCCOCCNc3cccc4c3C(=O)N(C3CCC(=O)NC3=O)C4=O)cc1)c1nnc(C)n1-2 (stereo partly specified) on Protein cereblon/Bromodomain-containing protein 4 (Homo sapiens, UniProt O60885+Q96SW2), anyone have it?
OUTPUT: > 9.00

====

biological target: von Hippel-Lindau disease tumor suppressor/Steroid hormone receptor ERR1 (Homo sapiens, UniProt P11474+P40337); assay: Proteolysis targeting chimera activity in human MCF7 cells assessed as induction of VHL-mediated delivery of ERRalpha for protein degradation by proteasome by measuring drug level causing 50% substrate depletion incubated for 24 hrs by Western blot method
Sequence (P11474 whole entry): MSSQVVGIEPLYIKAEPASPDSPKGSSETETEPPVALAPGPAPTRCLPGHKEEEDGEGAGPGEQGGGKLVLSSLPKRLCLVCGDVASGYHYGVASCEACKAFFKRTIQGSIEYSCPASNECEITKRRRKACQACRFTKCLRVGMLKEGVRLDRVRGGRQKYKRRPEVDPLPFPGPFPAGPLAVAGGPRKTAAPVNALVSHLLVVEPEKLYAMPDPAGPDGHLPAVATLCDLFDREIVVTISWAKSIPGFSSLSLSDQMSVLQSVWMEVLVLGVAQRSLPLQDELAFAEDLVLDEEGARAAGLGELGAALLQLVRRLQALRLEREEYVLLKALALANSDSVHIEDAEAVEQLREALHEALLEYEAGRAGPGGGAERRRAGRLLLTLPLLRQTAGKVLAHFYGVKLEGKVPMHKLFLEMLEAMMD
Sequence (P40337 whole entry): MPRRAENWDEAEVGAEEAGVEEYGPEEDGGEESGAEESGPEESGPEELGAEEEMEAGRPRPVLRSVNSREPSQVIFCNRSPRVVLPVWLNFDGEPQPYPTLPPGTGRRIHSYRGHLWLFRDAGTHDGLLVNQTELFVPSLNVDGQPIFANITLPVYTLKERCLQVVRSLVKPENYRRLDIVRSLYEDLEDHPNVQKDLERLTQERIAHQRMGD
Quantity name: pIC50
pIC50 (log units): -log10 of the concentration in mol/L.

INPUT: Item COc1cc(/C=C2\SC(=O)N(CCOCCC(=O)N[C@H](C(=O)N3C[C@H](O)C[C@H]3C(=O)NCc3ccc(-c4scnc4C)cc3)C(C)(C)C)C2=O)ccc1Oc1ccc(C#N)cc1C(F)(F)F has what recorded pIC50?
OUTPUT: 7.00
